Quick record of IC50 values for rat kidney aldose reductase (Rattus norvegicus, UniProt P07943).
Metric: IC50 (µM)

[
  {
    "Molecule": "O=C(O)c1cccc(O)c1 [3-Hydroxybenzoic acid, 3-hydroxybenzoic acid]",
    "Metric": "IC50",
    "Unit name": "µM",
    "Numeric result": 150
  },
  {
    "Molecule": "O=C(O)/C=C/c1ccc(O)cc1 [p-Coumaric acid, trans-4-Hydroxycinnamic acid]",
    "Metric": "IC50",
    "Unit name": "µM",
    "Numeric result": 57
  },
  {
    "Molecule": "O=C(O)c1cc(O)c(O)c(O)c1",
    "Metric": "IC50",
    "Unit name": "µM",
    "Numeric result": 176
  },
  {
    "Molecule": "COc1cc(C(=O)O)cc(OC)c1O",
    "Metric": "IC50",
    "Unit name": "µM",
    "Numeric result": 95
  },
  {
    "Molecule": "COc1cc(C(=O)O)ccc1O [Vanillic acid, 4-hydroxy-3-methoxybenzoic acid]",
    "Metric": "IC50",
    "Unit name": "µM",
    "Numeric result": 86
  },
  {
    "Molecule": "O=C(O)c1ccc(O)cc1 [4-Hydroxybenzoic acid]",
    "Metric": "IC50",
    "Unit name": "µM",
    "Numeric result": 50
  },
  {
    "Molecule": "O=C(O)c1ccc(O)c(O)c1 [Protocatechuic acid, 3,4-dihydroxybenzoic acid]",
    "Metric": "IC50",
    "Unit name": "µM",
    "Numeric result": 48
  },
  {
    "Molecule": "COc1cc(C=CC(=O)O)cc(OC)c1O [Sinapic acid, 3,5-Dimethoxy-4-hydroxycinnamic acid]",
    "Metric": "IC50",
    "Unit name": "µM",
    "Numeric result": 33
  },
  {
    "Molecule": "COc1cc(C=CC(=O)O)ccc1O [Ferullic acid, 4-Hydroxy-3-methoxycinnamic acid]",
    "Metric": "IC50",
    "Unit name": "µM",
    "Numeric result": 69
  },
  {
    "Molecule": "O=C(O)c1cc(O)cc(O)c1 [α-Resorcylic acid, 3,5-dihydroxybenzoic acid]",
    "Metric": "IC50",
    "Unit name": "µM",
    "Numeric result": 110
  }
]

====

- Tested target: rat kidney aldose reductase (Rattus norvegicus)
- Construct: Purified rat kidney aldose reductase enzyme; from tissue; host or cells: rat kidney
- Assay text: In vitro inhibition of purified rat kidney aldose reductase (NADPH absorbance decrease at 340 nm)
- Format: biochemical
- Condition set: Lineweaver-Burk graph; three inhibitor concentrations, five DL-glyceraldehyde concentrations; X ± SD
# Ki per entry
Metric: Ki (µM)

[
  {
    "Molecule": "O=C(O)c1ccc(O)c(O)c1 [Protocatechuic acid, 3,4-dihydroxybenzoic acid]",
    "Tested target": "rat kidney aldose reductase (Rattus norvegicus)",
    "Metric": "Ki",
    "Numeric result": 46.3
  },
  {
    "Molecule": "COc1cc(C(=O)O)cc(OC)c1O",
    "Tested target": "rat kidney aldose reductase (Rattus norvegicus)",
    "Metric": "Ki",
    "Numeric result": 107
  },
  {
    "Molecule": "O=C(O)c1cccc(O)c1 [3-Hydroxybenzoic acid, 3-hydroxybenzoic acid]",
    "Tested target": "rat kidney aldose reductase (Rattus norvegicus)",
    "Metric": "Ki",
    "Numeric result": 176
  },
  {
    "Molecule": "O=C(O)c1cc(O)cc(O)c1 [α-Resorcylic acid, 3,5-dihydroxybenzoic acid]",
    "Tested target": "rat kidney aldose reductase (Rattus norvegicus)",
    "Metric": "Ki",
    "Numeric result": 127
  },
  {
    "Molecule": "COc1cc(C(=O)O)ccc1O [Vanillic acid, 4-hydroxy-3-methoxybenzoic acid]",
    "Tested target": "rat kidney aldose reductase (Rattus norvegicus)",
    "Metric": "Ki",
    "Numeric result": 103
  },
  {
    "Molecule": "O=C(O)c1cc(O)c(O)c(O)c1",
    "Tested target": "rat kidney aldose reductase (Rattus norvegicus)",
    "Metric": "Ki",
    "Numeric result": 219
  },
  {
    "Molecule": "O=C(OCC1OC(OC(=O)c2cc(O)c(O)c(OC(=O)c3cc(O)c(O)c(O)c3)c2)C(OC(=O)c2cc(O)c(O)c(OC(=O)c3cc(O)c(O)c(O)c3)c2)C(OC(=O)c2cc(O)c(O)c(OC(=O)c3cc(O)c(O)c(O)c3)c2)C1OC(=O)c1cc(O)c(O)c(OC(=O)c2cc(O)c(O)c(O)c2)c1)c1cc(O)c(O)c(OC(=O)c2cc(O)c(O)c(O)c2)c1 (stereo not shown)",
    "Tested target": "rat kidney aldose reductase (Rattus norvegicus)",
    "Metric": "Ki",
    "Numeric result": 0.598
  }
]
